What viability at 48 h, 30 µM was measured for each of the following?
- Protocol Description: Cytotoxicity against human A431 cells assessed as cell viability at 30 uM after 48 hrs by MTS assay relative to control
- Type: cell-based, A-431
- Particulars: read-out: Activity
Give the value, in units of %, as a plain number.

Ask: Given the entry O=[N+]([O-])c1cc(-c2nnc(SCc3ccccc3Cl)o2)cc([N+](=O)[O-])c1 , report its measured viability at 48 h, 30 µM.
Result: 91

Ask: Thanks! And O=[N+]([O-])c1cc(-n2nnnc2SCc2ccc(Cl)c(Cl)c2)cc([N+](=O)[O-])c1 ?
Result: 90

Ask: Continue with O=[N+]([O-])c1cc(-c2nnc(SCc3ccc(Cl)cc3)o2)cc([N+](=O)[O-])c1
Result: 100

* * *

Consider the following compounds; for each one, report its log10 MIC.
- Test system: Mycobacterium tuberculosis
- Protocol Description: Antimycobacterial activity against Mycobacterium tuberculosis CNCTC My 331/88 after 14 days by micromethod
- Type: functional
- Particulars: CNCTC My 331/88, 336 h
A difference of one corresponds to tenfold MIC; all values are log10 with MIC in µM.

Ask: Entry under review: CCCSc1nnc(-c2cc([N+](=O)[O-])cc([N+](=O)[O-])c2)o1 . Reported log10 MIC?
Result: -0.60

Ask: Would you kindly repeat that for O=[N+]([O-])c1cc(-c2nnc(SCc3ccc(Cl)cc3Cl)o2)cc([N+](=O)[O-])c1 ?
Result: -1.52

Ask: Quick one: O=[N+]([O-])c1cc(-n2nnnc2SCc2ccccc2)cc([N+](=O)[O-])c1
Result: -0.30

Ask: Repeat with O=[N+]([O-])c1cc(-c2nnc(SCc3ccc(Cl)c(Cl)c3)o2)cc(C(F)(F)F)c1
Result: -0.30

Ask: Try this compound too: O=[N+]([O-])c1cc(-c2nnc(S)o2)cc([N+](=O)[O-])c1
Result: 1.79

Ask: Further, for COc1ccc(CSc2nnc(-c3cc([N+](=O)[O-])cc([N+](=O)[O-])c3)o2)cc1 ?
Result: -1.52

Ask: Another compound to look at: COc1ccc(CSc2nnc(-c3cc([N+](=O)[O-])cc(C(F)(F)F)c3)o2)cc1
Result: -0.30

Ask: Request: O=[N+]([O-])c1cc(-c2nnc(SC3CCCCC3)o2)cc([N+](=O)[O-])c1
Result: -1.52

Ask: Cool, now NNC(=O)c1ccncc1
Result: -0.30

Ask: Input Nc1cc(-c2nnc(SCc3ccc(Br)cc3)o2)cc([N+](=O)[O-])c1
Result: 2.10

Ask: Also O=[N+]([O-])c1cc(-c2nnc(SCc3ccc(Br)cc3)o2)cc([N+](=O)[O-])c1 ?
Result: -1.52

Ask: What do we get for O=[N+]([O-])c1cc(-n2nnnc2SCc2ccc(Cl)cc2)cc([N+](=O)[O-])c1 ?
Result: -0.30

Ask: Here is the next compound: CC(=O)Nc1cc(-c2nnc(SCc3ccc(Cl)cc3)o2)cc([N+](=O)[O-])c1
Result: 2.40

Ask: Please answer likewise for O=[N+]([O-])c1cc(-c2nnc(SCc3ccccc3)o2)cc([N+](=O)[O-])c1
Result: -0.30

Ask: Input Nc1cc(-c2nnc(SCc3ccccc3)o2)cc([N+](=O)[O-])c1
Result: 2.40
